system.under.test: SARS-CoV-2 RBD (RBD-2) (SARS-CoV-2)
assay.summary: flow, HeLa-ACE2, mAb:RBD=2:1
What MFI (RBD binding to cell surface) was measured for each of the following?
Would you mind answering with just the numeric figure?

Tell us which MFI (RBD binding to cell surface) value is on record for L12.bP11A11 (antibody, V domains shown, human IgG1) VH: QVQLVQSGAEVKKPGASVKVSCKASGYTFTGYYMHWVRQAPGQGLEWMGWISPNSGGTNYAQKFQGWVTMTRDTSVSTAYMELSRLRFDDTAVYYCATESWVYGSGSYSSGAFDIWGQGTMVTVSS VL: QSVLTQPPSASGSPGQSVTISCTGTSSDVGGYDYVSWYQQHPGKAPKLMIYEVSKRPSGVPDRFSGSKSGNTASLTVPGLQAEDEADYYCTSYAGSNNFVFGGGTKLIVL
6330

Tell me its MFI (RBD binding to cell surface) given L12.cP08A09 (antibody, V domains shown, human IgG1) VH: QVQLVQSGAEVKKPGASVKVSCKASGYIYSGYYMHWVRQAPGQGLEWMGWISPDSGGTNYAQRFQGRVTMTRDTSTTTAYMELSRLRSDDTAVYYCARGPRYSGTYFDYWGQGTLVTVSS VL: QSALTQPASVSGSPGQSITISCTGTSSDVGGYNYVSWYQQHPDKAPKLMIYDVSNRPSGVSNRFSGSKSGNTASLTISGLQAEDEADYYCSSYTSGSTQVFGGGTKLTVL as the entry.
6800
